These measurements were taken from patent US20090221680.

Give measured Kd for each item. Keep answers brief.
target: thrombin (alpha-thrombin) (Homo sapiens, UniProt P00734;P00734 P00734:315-363,P00734:364-622); assay: filter; DPBS Ca2+ Mg2+, 0.1 mg/ml BSA

Consider the binder AMX(395)_A4 (ssDNA) DNA: TCCCGGGAGATCGCTTCGAAAATGGTTGGCGTGGGTGGCTGAGGATCGATC . State its measured Kd. 29.4 nM

Consider the binder TCCCGATTGGAAAGCCTAGGATGGGTAGGGTGGTGGCTGAGGATCGATC (ssDNA) [AMX(399)_F12] . State its measured Kd. 0.66 nM

Consider the binder TCCCATGAACTCAGGGTAATTTTTTGGTGTGGGTGGCTGAGGATCGATC (ssDNA) [AMX(398)_D9] . State its measured Kd. 5.64 nM

Consider the binder TCCCTAGATCGGGTCCTGGTAGTGTTTCTGGGTGGCTGAGGATCGATC (ssDNA) [AMX(399)_F5] . State its measured Kd. 2.35 nM

Consider the binder TCCCGAGGGACGACGCCTAGGTTGGGTAGGGTGGTGGCTGAGGATCGATC (ssDNA) [AMX(399)_C11] . State its measured Kd. 1.74 nM

Consider the binder TCCCCGATGTGTCAGCCTAGGGTGGTTAGGGTGGTGGCTGAGGATCGATC (ssDNA) [AMX(398)_C5] . State its measured Kd. 2.2 nM

Consider the binder TCCCGATCGCTGTCCTAGGATGGGTAGGGTGGTGGCTGAGGATCGATC (ssDNA) [AMX(399)_D2] . State its measured Kd. 1.33 nM

Consider the binder TCCCAAGATCGGTACATACAGTGGGTGGTGAGGGTGGCTGAGGATCGATC (ssDNA) [AMX(395)_D11] . State its measured Kd. 5.55 nM

Consider the binder TCCTGAGGGATCAGGCTAGGTTGGGTAGGGTGGTGGCTGAGGATCGATC (ssDNA) [AMX(398)_C8 (ARC2027)] . State its measured Kd. 0.42 nM

Consider the binder TCCCAATCGGTCCTGGTAATATATTGGTCGGGGTGGCTGAGGATCGATC (ssDNA) [AMX(399)_H3] . State its measured Kd. 1.93 nM

Consider the binder TCCCGTTCGAGTCCTGGTGTTTTATTGGCCTGGGTGGCTGAGGATCGATC (ssDNA) [AMX(399)_D5] . State its measured Kd. 2.26 nM

Consider the binder TCCCGGGTGGTTATCTTCTCAGGGATGGTGTGGGTGGCTGAGGATCGATC (ssDNA) [AMX(395)_C1] . State its measured Kd. 7.48 nM

Consider the binder TCCCGGGATCGAGTCCGATTAGGGATGGTGTGGGTGGCTGAGGATCGATC (ssDNA) [AMX(395)_B7] . State its measured Kd. 14.5 nM

Consider the binder TCCCGAGCGATACTGCCTAGGCTGGGTAGGGTGGTGGCTGAGGATCGATC (ssDNA) [AMX(398)_C10] . State its measured Kd. 3.27 nM

Consider the binder TCCGATTGACGTGGTGGGTTACTGGTTTGGGTGGCTGAGGATCGATC (ssDNA) [AMX(398)_A1] . State its measured Kd. 0.3 nM

Consider the binder TCCCGAGTGATCCGGGGTGTTTTTTTGGGTTGGGTGGCTGAGGATCGATC (ssDNA) [AMX(398)_E3] . State its measured Kd. 0.89 nM

Consider the binder TCCCGAGCGATACTGCCTAGGTTGGGTAGGGTGGTGGCTGAGGATCGATC (ssDNA) [AMX(398)_D6 (ARC2026)] . State its measured Kd. 0.29 nM
